Would you mind telling me the reported relative viability of each entry?
test system: NCI-H2126; assay: relative viability (nuclei count vs DMSO), 5 days (fraction); higher = more cells survive; conditions: first compound 0.08 µM
Give the value as a plain number.

Determine its reported relative viability: O=c1cc(-c2cccc3c2Sc2ccccc2S3)oc(N2CCOCC2)c1 + CS(=O)(=O)CCNCc1ccc(-c2ccc3ncnc(Nc4ccc(OCc5cccc(F)c5)c(Cl)c4)c3c2)o1 [Lapatinib] (partner 2 µM) 0.715

Item O=c1cc(-c2cccc3c2Sc2ccccc2S3)oc(N2CCOCC2)c1 + Nc1nc2[nH]cc(CCc3ccc(C(=O)N[C@@H](CCC(=O)O)C(=O)O)cc3)c2c(=O)[nH]1 [Pemetrexed] (partner 0.2 µM) : provide relative viability 0.682

Tell me its relative viability given O=c1cc(-c2cccc3c2Sc2ccccc2S3)oc(N2CCOCC2)c1 + C[C@]1(O)C[C@@H](c2nc(-c3ccc4ccc(-c5ccccc5)nc4c3)c3c(N)nccn32)C1 [Linsitinib] (partner 1 µM) as the entry. 0.707

###

test system: EMC-BAC-2; test: relative viability (nuclei count vs DMSO), 5 days (fraction); higher = more cells survive; settings: first compound 0.8 µM
REPORTED PROPERTY: relative viability
Form rule: numeric answer, no unit written next to it.

Provide measured relative viability value, entry: O=c1cc(-c2cccc3c2Sc2ccccc2S3)oc(N2CCOCC2)c1 + Cc1cc(Nc2cc(N3CCN(C)CC3)nc(Sc3ccc(NC(=O)C4CC4)cc3)n2)n[nH]1 [Tozasertib] (partner 0.1 µM) 0.295

Please supply the value of reported relative viability for the item O=c1cc(-c2cccc3c2Sc2ccccc2S3)oc(N2CCOCC2)c1 + NC(=O)Nc1cc(-c2cccc(F)c2)sc1C(=O)N[C@H]1CCCNC1 [AZD7762] (partner 0.2 µM) 0.952

Look up relative viability of COc1nc(C)cnc1NS(=O)(=O)c1cccnc1-c1ccc(-c2nnco2)cc1 [Zibotentan] + CS(=O)(=O)CCNCc1ccc(-c2ccc3ncnc(Nc4ccc(OCc5cccc(F)c5)c(Cl)c4)c3c2)o1 [Lapatinib] (partner 2 µM) and report it. 0.873

Please supply the value of reported relative viability for the item O=c1cc(-c2cccc3c2Sc2ccccc2S3)oc(N2CCOCC2)c1 + CCNC(=O)c1noc(-c2cc(C(C)C)c(O)cc2O)c1-c1ccc(CN2CCOCC2)cc1 [Luminespib] (partner 0.01 µM) 1.13

Give the reported relative viability for this compound. O=c1cc(-c2cccc3c2Sc2ccccc2S3)oc(N2CCOCC2)c1 + Cc1nc(NC(=O)N2CCC[C@H]2C(N)=O)sc1-c1ccnc(C(C)(C)C(F)(F)F)c1 [Alpelisib] (partner 2 µM) 0.815

###

tested on: NCI-H3122; test: relative viability (nuclei count vs DMSO), 5 days (fraction); higher = more cells survive; settings: first compound 1 µM
Param label: returns yes when relative viability < 0.6, returns no otherwise, including exact equality.

hey, is relative viability for O=c1cc(N2CCOCC2)oc2c(-c3cccc4c3sc3ccccc34)cccc12 + COc1cccc2cc(-c3nc([C@H]4CC[C@H](C(=O)O)CC4)n4ncnc(N)c34)[nH]c12 [OSI-027] (partner 0.5 µM) lower than 0.6 or not? no

Decide: relative viability of CCN(CC)CCCCNc1ncc2cc(-c3cc(OC)cc(OC)c3)c(NC(=O)NC(C)(C)C)nc2n1 + Cc1nc(Nc2ncc(C(=O)Nc3c(C)cccc3Cl)s2)cc(N2CCN(CCO)CC2)n1 [Dasatinib] (partner 0.075 µM) strictly below 0.6? no

Determine if CCN(CC)CCCCNc1ncc2cc(-c3cc(OC)cc(OC)c3)c(NC(=O)NC(C)(C)C)nc2n1 + CC(=O)c1c(C)c2cnc(Nc3ccc(N4CCNCC4)cn3)nc2n(C2CCCC2)c1=O [Palbociclib] (partner 0.5 µM) shows relative viability strictly lower than 0.6. yes

Below 0.6 on relative viability? Entry O=c1cc(N2CCOCC2)oc2c(-c3cccc4c3sc3ccccc34)cccc12 + CC(=O)c1c(C)c2cnc(Nc3ccc(N4CCNCC4)cn3)nc2n(C2CCCC2)c1=O [Palbociclib] (partner 0.5 µM) yes

Please check: relative viability for CCN(CC)CCCCNc1ncc2cc(-c3cc(OC)cc(OC)c3)c(NC(=O)NC(C)(C)C)nc2n1 + COc1cccc2cc(-c3nc([C@H]4CC[C@H](C(=O)O)CC4)n4ncnc(N)c34)[nH]c12 [OSI-027] (partner 0.5 µM) , strictly under 0.6 or not? no
